- MEASURED TARGET: Solute carrier family 22 member 7 (Mus musculus, UniProt Q91WU2)
- Sequence (Q91WU2 whole entry): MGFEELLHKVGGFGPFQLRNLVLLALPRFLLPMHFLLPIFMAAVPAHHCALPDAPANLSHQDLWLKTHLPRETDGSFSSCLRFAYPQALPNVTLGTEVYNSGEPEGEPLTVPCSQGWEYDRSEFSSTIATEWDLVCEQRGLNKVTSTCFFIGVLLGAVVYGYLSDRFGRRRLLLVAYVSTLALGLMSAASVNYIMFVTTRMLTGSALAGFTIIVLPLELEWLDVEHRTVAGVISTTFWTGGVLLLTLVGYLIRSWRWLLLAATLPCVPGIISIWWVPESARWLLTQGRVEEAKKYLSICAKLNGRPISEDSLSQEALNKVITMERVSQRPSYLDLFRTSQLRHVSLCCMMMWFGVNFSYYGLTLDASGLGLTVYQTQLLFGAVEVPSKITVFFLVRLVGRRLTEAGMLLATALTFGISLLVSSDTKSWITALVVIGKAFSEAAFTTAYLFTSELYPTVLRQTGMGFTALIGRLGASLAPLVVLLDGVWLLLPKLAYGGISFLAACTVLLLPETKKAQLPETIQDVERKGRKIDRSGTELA
- EXPERIMENT NOTES: TP_TRANSPORTER: uptake in Xenopus laevis oocytes
- Format: functional, cell-based
- CONDITION DESCRIPTION: oocyte
VALUE TYPE: Activity

CCCC(CCC)C(=O)O: substrate [+]
Nc1ccc(C(=O)NCC(=O)O)cc1: substrate [+]
O=C(O)CCC(=O)C(=O)O: substrate [+]
Oc1ncnc2[nH]ncc12: substrate [+]

Turning now to a further record.
Query the reported Activity for Solute carrier family 22 member 7 (Mus musculus, UniProt Q91WU2); item: C[C@@H]1Cc2c(Cl)cc(C(=O)N[C@@H](Cc3ccccc3)C(=O)O)c(O)c2C(=O)O1 [3R14S-OCHRATOXIN A]
substrate [+]

The measurements presented in this section are drawn from ChEMBL document CHEMBL2074292.
